Test system: Pichia kudriavzevii
Experiment: Minimum fungicidal concentration required for antifungal activity against Issatchenkia orientalis DSM 6128 strain
Assay type: functional
Output Y for records whose MFC99 is lower than 30 µg/mL, N for records at or above 30 µg/mL.

# count of solved cases: 6
COMPOUND	LABEL
COc1ccc(/N=c2\ssnc2Cl)cc1	Y
Nc1nc(=O)[nH]cc1F [FLUCYTOSINE]	N
N#Cc1ccccc1/N=c1\ssnc1Cl	Y
COC(=O)c1ccccc1/N=c1\ssnc1Cl	N
COc1ccccc1/N=c1\ssnc1Cl	Y
C[C@@H]1[C@H](O)[C@@H](C)/C=C/C=C/C=C/C=C/C=C/C=C/C=C/[C@H](O[C@@H]2O[C@H](C)[C@@H](O)[C@H](N)[C@@H]2O)C[C@@H]2O[C@](O)(C[C@@H](O)C[C@@H](O)[C@H](O)CC[C@@H](O)C[C@@H](O)CC(=O)O[C@H]1C)C[C@H](O)[C@H]2C(=O)O [AMPHOTERICIN B]	Y

Qu. I wonder whether OC(Cn1cncn1)(Cn1cncn1)c1ccc(F)cc1F [FLUCONAZOLE] has MFC99 below 30 µg/mL. Can you tell?
Ans. N

Qu. Now consider COc1ccc(/N=c2\ssnc2Cl)cc1OC and answer again.
Ans. N

Qu. Now consider Clc1nss/c1=N\c1ccc2c(c1)OCCO2 and answer again.
Ans. N

Qu. Now consider Clc1nss/c1=N\c1ccccc1 and answer again.
Ans. Y

Qu. Now consider COc1cc(C#N)c(/N=c2\ssnc2Cl)cc1OC and answer again.
Ans. N

Qu. Now consider COC(=O)c1cc(OC)c(OC)cc1/N=c1\ssnc1Cl and answer again.
Ans. N

Qu. Now consider COc1cc(/N=c2\ssnc2Cl)cc(OC)c1OC and answer again.
Ans. N

----------
System: Salmonella enterica
Experiment: Antibacterial activity against gram-negative bacteria S. choleraesuis; No effect
Format: functional, organism-based
Calls of active or inactive are those of the source. The rule behind the calls is not given here.
READOUT KIND: Activity

Here is how some compounds turned out for Activity.
In [3]: df
Out[3]:
                   smiles_data          target_desc  readout_kind  value_observed
0  COc1cc2nc(C#N)oc(=O)c2cc1OC  Salmonella enterica      Activity        inactive
1        N#Cc1nc2ccccc2c(=O)o1  Salmonella enterica      Activity        inactive
2  COc1cc2nc(C#N)nc(OC)c2cc1OC  Salmonella enterica      Activity        inactive
3       CCOc1nc(C#N)nc2ccccc12  Salmonella enterica      Activity        inactive
4  COc1cc2nc(C#N)sc(=O)c2cc1OC  Salmonella enterica      Activity        inactive

Qu. Which Activity value is on record for CCCCOc1nc(C#N)nc2cc(OC)c(OC)cc12 ?
Ans. inactive

Qu. Now consider COc1cc2nc(C#N)nc(OC(C)C)c2cc1OC and answer again.
Ans. inactive

Qu. Now consider N#Cc1nc2cc(Cl)ccc2c(=O)s1 and answer again.
Ans. inactive

Qu. Now consider N#Cc1nc2ccccc2c(=O)s1 and answer again.
Ans. inactive
